- test details: in vivo
- condition info: mouse, iv, 500 mg/kg
readout: mortality

QUERY: Supply mortality value. Item: CC(S)C(=O)NCC(=O)O (stereo not shown) [compound (II), 2-mercaptopropionylglycine, reference compound]
RESULT: 0%

====

- test details: physchem
- condition info: dry
For each entry below, report its remaining at 8 h value.
One number for each entry, in %.

QUERY: Supply remaining at 8 h value. Item: CC(SC(=O)c1cccs1)C(=O)NCC(=O)O (centres unmarked)
RESULT: 99.8

Now take the following compound into account.
QUERY: Supply remaining at 8 h value. Item: CC(S)C(=O)NCC(=O)O (centres unmarked) [compound (II), 2-mercaptopropionylglycine, reference compound]
RESULT: 98.4

Where do these numbers come from? They come from patent US4242354A.
